Test system: 327498-153-R-J2-PDC complex spheroid growth, % test/control;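 note: spheroids exposed to compound for 7 days after 3 days of growth; 100% = DMSO vehicle control wells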
Test: Anticancer human tumor 327498-153-R-J2-PDC patient-derived uterine carcinosarcoma cell line growth inhibition [Asc]
Conditions: second compound 0.01 µM; first compound 0.1 µM; stronger effect = lower value

>  <molecule>
C=C(F)C(=O)N1CCN(c2nc(OCC3CCCN3C)nc3c2CCN(c2cccc4cccc(Cl)c24)C3)CC1CC#N (configuration not stated) + CNC(C)C(=O)NC1CN(S(=O)(=O)c2cccc(S(=O)(=O)N3CCC4CCC(C(=O)NC(c5ccccc5)c5ccccc5)N4C(=O)C(NC(=O)C(C)NC)C3)c2)CCC2CCC(C(=O)NC(c3ccccc3)c3ccccc3)N2C1=O

>  <viability, T/C / %>
71

$$$$
>  <molecule>
NC1CCC(NC2CC2c2ccccc2)CC1 (configuration not stated) + CNC(C)C(=O)NC1CN(S(=O)(=O)c2cccc(S(=O)(=O)N3CCC4CCC(C(=O)NC(c5ccccc5)c5ccccc5)N4C(=O)C(NC(=O)C(C)NC)C3)c2)CCC2CCC(C(=O)NC(c3ccccc3)c3ccccc3)N2C1=O

>  <viability, T/C / %>
96

$$$$
>  <molecule>
C#Cc1c(F)ccc2cc(O)cc(-c3ncc4c(N5CC6CCC(C5)N6)nc(OCC56CCCN5CC(F)C6)nc4c3F)c12 (configuration not stated) + CNC(C)C(=O)NC1CN(S(=O)(=O)c2cccc(S(=O)(=O)N3CCC4CCC(C(=O)NC(c5ccccc5)c5ccccc5)N4C(=O)C(NC(=O)C(C)NC)C3)c2)CCC2CCC(C(=O)NC(c3ccccc3)c3ccccc3)N2C1=O

>  <viability, T/C / %>
97.8

$$$$
>  <molecule>
CCN1CCN(Cc2ccc(Nc3ncc(F)c(-c4cc(F)c5nc(C)n(C(C)C)c5c4)n3)nc2)CC1 + CNC(C)C(=O)NC1CN(S(=O)(=O)c2cccc(S(=O)(=O)N3CCC4CCC(C(=O)NC(c5ccccc5)c5ccccc5)N4C(=O)C(NC(=O)C(C)NC)C3)c2)CCC2CCC(C(=O)NC(c3ccccc3)c3ccccc3)N2C1=O

>  <viability, T/C / %>
88.9

$$$$
>  <molecule>
Cn1ncnc1[C@H]1c2n[nH]c(=O)c3cc(F)cc(c23)N[C@@H]1c1ccc(F)cc1 + CNC(C)C(=O)NC1CN(S(=O)(=O)c2cccc(S(=O)(=O)N3CCC4CCC(C(=O)NC(c5ccccc5)c5ccccc5)N4C(=O)C(NC(=O)C(C)NC)C3)c2)CCC2CCC(C(=O)NC(c3ccccc3)c3ccccc3)N2C1=O

>  <viability, T/C / %>
8.36

$$$$
>  <molecule>
COc1c(OCCCN2CCOCC2)ccc2c3n(c(=NC(=O)c4cnc(N)nc4)nc12)CCN3 + CNC(C)C(=O)NC1CN(S(=O)(=O)c2cccc(S(=O)(=O)N3CCC4CCC(C(=O)NC(c5ccccc5)c5ccccc5)N4C(=O)C(NC(=O)C(C)NC)C3)c2)CCC2CCC(C(=O)NC(c3ccccc3)c3ccccc3)N2C1=O

>  <viability, T/C / %>
57.5

$$$$
>  <molecule>
O=C(c1cc(Cc2n[nH]c(=O)c3ccccc23)ccc1F)N1CCN(C(=O)C2CC2)CC1 + CNC(C)C(=O)NC1CN(S(=O)(=O)c2cccc(S(=O)(=O)N3CCC4CCC(C(=O)NC(c5ccccc5)c5ccccc5)N4C(=O)C(NC(=O)C(C)NC)C3)c2)CCC2CCC(C(=O)NC(c3ccccc3)c3ccccc3)N2C1=O

>  <viability, T/C / %>
105

$$$$
